For each of the compounds below, state its Percentage drop ± s.e. of the tracing versus maximum peak (mucolytic activity index).
Experiment: Mucolytic activity in vitro, thromboelastograph, method of Morandini et al.
Conditions: human sputum; 1 ml of a 10% solution at dilution 1/60
Please give a number only; it is taken to be in %.

INPUT: Quick check: Percentage drop ± s.e. of the tracing versus maximum peak (mucolytic activity index) of CCOC(=O)CC(C[N+](C)(C)C)OC(=O)CCS (stereo not drawn) ?
OUTPUT: 39.5

INPUT: Quick check: Percentage drop ± s.e. of the tracing versus maximum peak (mucolytic activity index) of COC(=O)CC(C[N+](C)(C)C)OC(=O)CCCCS (stereo not drawn) ?
OUTPUT: 48.4

INPUT: Quick check: Percentage drop ± s.e. of the tracing versus maximum peak (mucolytic activity index) of CC(C)OC(=O)CC(C[N+](C)(C)C)OC(=O)CS (stereo not drawn) ?
OUTPUT: 44.3

INPUT: Quick check: Percentage drop ± s.e. of the tracing versus maximum peak (mucolytic activity index) of CCC(S)C(=O)OC(CC(=O)OCC(C)C)C[N+](C)(C)C (stereo not drawn) ?
OUTPUT: 51.2

INPUT: Quick check: Percentage drop ± s.e. of the tracing versus maximum peak (mucolytic activity index) of CC(C)COC(=O)CC(C[N+](C)(C)C)OC(=O)C(C)S (stereo not drawn) ?
OUTPUT: 42.8

INPUT: Quick check: Percentage drop ± s.e. of the tracing versus maximum peak (mucolytic activity index) of CC(=O)N[C@@H](CS)C(=O)O [Acetylcysteine, acetylcysteine, reference compound] ?
OUTPUT: 23.8
